assay: qHTS Assay for Inhibitors of Fructose-1,6-bisphosphate Aldolase from Giardia Lamblia: Coupling assay counterscreen; details: coupling enzyme system counterscreen, AmpLite Red fluorescence; at 58.2 µM (top of the series); note: % is set by controls: 0 for no effect and ±100 for the full control effect
Hit rate of the full screen: of about 290,000 compounds, about 2,000 (0.69%) were called active. The sample holds actives, similar compounds and a random draw of the others, so the mix is not that of the screen.
Record form. Attribute: activity change, negative = inhibition. Fill in for each entry.
Give bare numbers, in %.

> print(dat)
                           compound  readout.number
1  COc1ccc(N=C(C)c2sc3ccccc3c2O)cc1           -5.39

Go through the list and state activity change, negative = inhibition for each entry.
1. COc1ccc(-c2c(-c3ccc(OC)cc3O)nc(C)nc2C(F)(F)F)cc1
2. COc1cc(N=Cc2c(O)[nH]c3ccccc23)cc(OC)c1OC
3. c1coc(-c2nc3nc4ccccc4n3nc2-c2ccco2)c1
4. Cc1cc(CNC(=O)C2CCC(=O)N(CCc3ccc(Cl)cc3)C2)no1 (centres undefined)

1: 2.62; 2: -1.7; 3: -45.8; 4: 2.61

----------
assay: qHTS Assay for Inhibitors of Fructose-1,6-bisphosphate Aldolase from Giardia Lamblia: Coupling assay counterscreen; settings: coupling enzyme system counterscreen, AmpLite Red fluorescence; at 58.2 µM (top of the series); note: % is set by controls: 0 for no effect and ±100 for the full control effect
About 2,000 (0.69%) of roughly 290,000 compounds were called active. Rule as the data show it: active = activity change below about -30%; inactive = the rest, inconclusive results apart. Many of the other results were omitted from the sample, so actives are more common in it than they were.
Outcome (select one): Yes (active), No (inactive)

compound	label value
C=C1C([C@@]2(C)C(OC(C)=O)CC(=O)O[C@@](C)(COC(C)=O)C2CC(=O)OC)C(OC=O)C(OC(=O)C(O)C(C)CC)[C@]2(C)C(c3ccoc3)CC(=O)C12O (some centres undefined)	No
O=C1Nc2ccc([N+](=O)[O-])cc2C1=Nc1cccc(CO)c1	Yes
C=CCn1c(N)c(S(=O)(=O)c2cccs2)c2nc3ccccc3nc21	Yes

Turning to the following compound.
What did this assay record as the result for `CCN(CC)CCn1c(N)c(S(=O)(=O)c2ccccc2)c2nc3ccccc3nc21` ?
No

----------
test: qHTS Assay for Inhibitors of Fructose-1,6-bisphosphate Aldolase from Giardia Lamblia: Coupling assay counterscreen; conditions: coupling enzyme system counterscreen, AmpLite Red fluorescence; at 58.2 µM (top of the series); note: % is set by controls: 0 for no effect and ±100 for the full control effect
About 2,000 (0.69%) of roughly 290,000 compounds were called active. Shown is part of a subset that was picked to be rich in actives.
measured property: activity change, negative = inhibition (%)
Give bare numbers, in %.

Answered cases to consult:
> print(dat)
                                   compound  readout.number
1  COc1ccc2c(c1)C=CC1(O2)N(CCO)c2ccccc2C1(C)C (stereo unspecified)           -47.2
2  C=CCn1c(CNC(=O)c2ccco2)nnc1SCC(=O)c1ccc(OC)cc1            1.42
3  Cc1ccc(OCc2nnc(SC3CCc4ccccc4C3=O)n2C)cc1 (stereo unspecified)           -79.8
4  CCn1c(CNc2ccc(OC)cc2)nnc1SCC(=O)c1ccc(OC)cc1           -36.8
5          COc1ccc(C(=O)CCc2ccccc2O)c(OC)c1          -0.998
6   Cc1nc(Nc2ccccc2F)c2nnn(Cc3ccccc3Cl)c2n1            1.81
7  COc1ccc(-c2ccc(C3C4C=CCCC4(C)C(=O)N3Cc3ccccc3)c(F)c2)cc1OC (stereo unspecified)            2.19
8  Cc1cccnc1NC(=O)CSc1nnc(COc2ccc(C(C)C)cc2)n1C           -3.92

Go through the list and state activity change, negative = inhibition for each entry.
1. Cc1cccc(OCC(=O)NCCNC(=O)c2cccnc2)c1
2. COc1cc(NC(=O)C2CCN(c3cnccn3)CC2)cc(OC)c1
3. CC(=O)Nc1ccc(N2C(=O)C3C4C=CC(CC4)C3C2=O)cc1 (stereo unspecified)

[0.0752, -3.56, -0.366]
